FYI, the data here is from patent US20250027068.

biological target: pooled human IgG (human IgG1, 2, 3 and 4)
measured.parameter: Enzyme Activity Endpoint Assay: IgG (ng/µL)
The reply should be a number in ng/µL, with the unit left off.

protein	measured.parameter	quantitative.result
PRT-561 (protein) MANQEIRYSEETPSTITSVWTKGVTPPTQFIYNEDVFHAPYIANQGWYDITKTFNGKDDLLCGAATAGNMLHWWFDQNKEQIENYLKKHPEKQKINFNGEQMFDVKEAIDTKDSQTDSKLFNYFKDKAFPYLSTKHLGVFPDHVIDMFINGYRLSLTNHGPTPVKRQTKDPRGGIFDAVFTRGDQSKLLTSRHDFKEKTLNEISDLIKQELTEGKALGLSHTYANVRINHVINLWGADFDAEGNLEAIYVTDSDSNASIGMKKYYVGVNSAGKVAISAKEIEGDNIGAQVLGLFTLSTGQDIWQQTNLEHHHHHH	Enzyme Activity Endpoint Assay: IgG	0
PRT-269 (protein) MVTSVWTKGVTPPTDFIYGEDVLHAPYKAGQGWYDITKTFNGKDDLLCGAATAGNMLHWWFDQNKEQIENYLKKHPEKQKINFNGEQMFDVKEAIDTKDSQLDSKLFEYFLEKAFPNLSTKHLGVFPDHVIDMFINGYRLSLLNHGPTPVKRGSKDPRGGIFDAVFTRGDQSKLLTNRHDLKNKTLKEISDLIKQELTEGKALGISHTYANVRINHVINLWGADFDAEGNLEAIAVTDSDSNASIGMKKYFVGVNSSGKVAISAKEIEEDNIGAQVLGLFTLSTGQDIWNQTN	Enzyme Activity Endpoint Assay: IgG	86
PRT-581 (protein) MANQEIRYSKATPKTITSVWTKGVTPPENFIYNEDVLHAPYLANQGWYDITKTFNGKDDLLCGAATAGNMLHWWFDQNKEQIERYLKEHPEKQKINFNGEQMFDVKEAIDTKDSQTNSKLFEYFKDKAFPYLSTKHLGVFPDHVIDMFINGYRLSLTNHGPTPVKEQTKDPRGGIFDAVFTRGDQSKLLTSRHDFKEKTLNEISDLIKQELTEGKALGLSHTYANVRINHVINLWGADFDAEGNLEAIYVTDSDSNASIGMKKYYVGVNSAGKVAISAKEIEGDNIGAQVLGLFTLSTGKDIWEQTNLEHHHHHH	Enzyme Activity Endpoint Assay: IgG	0
PRT-599 (protein) MANQEIRYSEETPSTITSVWTKGVTPPTDFIQNEDVLHAPYIANQGWYDITKTFNGKDDLLCGAATAGNMLHWWFDQNKEQIENYLKKHPEKQKINFNGEQMFDVKEAIDTKDSQTDSALFEYFKDKAFPYLSTKHLGVFPDHVIDMFINGYRLSLTNHGPTPVKRGTKDPRGGIFDAVFTRGDQSKLLTSRHDFKEKTLNEISDLIKQELTEGKALGLSHTYANVRINHVINLWGADFNAEGNLEAIYVTDSDSNASIGMKKYYVGVNSAGKVAISAKEIKGDNIGAQVLGLFTLSTGQDIWNQTNLEHHHHHH	Enzyme Activity Endpoint Assay: IgG	0
PRT-556 (protein) MANQEIRYSKAKPKVITSVWTKGVTPPTQFTYNEDVFHAPYLPNQGWYDITKTFNGKDDLLCGAATAGNMLHWWFDQNKEQIERYLKEHPEKQKINFNGEQMFDVKEAIDTKDSQTNSKLFNYFKDKAFPYLSTKHLGVFPDHVIDMFINGYRLSLTNHGPTPVKEQNKDPRGGIFDDVFTRGDQSKLLTSRHDFKEKTLKEISDLIKQELKEGKALGLSHTYANVRINHVINLWGADFDAEGNLVAIYVTDSDSNASIGMKKYYVGVNSAGKVAISAKEIEDDNIGAQVLGLFTLSTGKDIWEKTNLEHHHHHH	Enzyme Activity Endpoint Assay: IgG	16
PRT-685 (protein) MQITSVWTKGVTPLTPEQFRNNNEDVIHAPYLPNQGWYDITKAFNGKDNLLCGAATAGNMLHWWFDQNKEEIEAYLKKYPEKQKIIFNNQELFDLRKAINTKDSQTNSALFNYFRDKAFPNLSARQLGVMPDLVLDMFINGYYLNVFKTQSTDVNRPYQDKDKRGGIFDHVFNRGDQTTLLTARHDLKNKTLNDISTIIKQELSSGKALALSHTYANVSISHVINLWGADFNAEGNLEAIYVTDSDANASIGMKKYYVGRNAHGHVAISAKKIEGENIGAQVLGLFTLSSGKEIWQKLSLEHHHHHH	Enzyme Activity Endpoint Assay: IgG	0
PRT-555 (protein) MANQEIRYSEETPKTITSVWTKGVTPPTDFIKNEDVLHAPYVANQGWYDITKTFNGKDDLLCGAATAGNMLHWWFDQNKEEIERYLKKHPEKQKINFNGEQMFDVKEAIDTKDSQTDSKLFEYFKDKAFPYLSTKHLGVFPDHVIDMFINGYRLSLTNHGPTPVKRGTKDPRGGIFDAVFTRGDQSKLLTSRHDFKEKTLNEISDLIKQELQEGKALGLSHTYANVRINHVINLWGADFDSEGNLEAIYVTDSDSNASIGMKKYYVGVNSAGKVAISAKEIEDDNIGAQVLGLFTLSTGKDIWEQTNLEHHHHHH	Enzyme Activity Endpoint Assay: IgG	0

Need Enzyme Activity Endpoint Assay: IgG, item PRT-474 (protein) MVTSVWTKGVTPPTDFRKIVDGNIAYYHAPYKAGQGWYDITKAFDGGDDLLCGAATAGNMLHWWFDQNKEQIENYLKKHPEKQKINFNGEQMFDVKEAIDTKDSQTNSELFNYFKEKAFPYLSTKHLGVFPDHVIDMFINGYRLSLTNHGPTPVKRGSKDPRGGIFDAVFTRGDQSKLLTNRHDLKNKTLKEISDLIKQELTEGKALGISHTYANVRINHVINLWGADFDAEGNLEAIYVTDSDSNASIGMKKYFVGVNSNGKVAISAKEIEEDNIGAQVLGLFTLSTGQDIWNQTNLEHHHHHH
0
